Sourced from paper PMC7307922

# Test Summary: in vivo
# Condition Summary: male, BALB/c, mouse, po, 10 mg/kg
compounds and their reported AUC(0-inf) at 24 h
// note: answer is a bare numeric in ng·h/mL

- CCCC1C(C(=O)Nc2cc(Cl)ccc2Cl)=C(C)NC2=C1C(=O)CCC2 (stereo not shown) [Compound 57]: 563

Quick note, AUC(0-inf) at 24 h for CC1=C(C(=O)Nc2cc(Cl)ccc2Cl)C(C2CCCC2)C2=C(CCCC2=O)N1 (stereo not shown) [Compound 63] landed at 5420

GET /value?item= CC1=C(C(=O)Nc2cc(Cl)ccc2Cl)C(c2ccco2)C2=C(CCCC2=O)N1 (stereo not shown) [Compound 16, reference compound] &field=AUC(0-inf) at 24 h returns 7050

Entry CC1=C(C(=O)Nc2ccccc2C)C(c2ccco2)C2=C(CCCC2=O)N1 (stereo not shown) [Compound 1, reference compound] ; AUC(0-inf) at 24 h = 14400
